System: bloodstream form of T. brucei strain Lister 427
EXPERIMENT NOTES: T. b. brucei 427 growth inhibition assay (LILiT, Alamar Blue)
Assay type: cell-based
REPORTED CONDITIONS: Trypanosoma brucei; read-out: EC50 against the parasite

{"COMPOUND": "O=c1c2ccn(Cc3ccc(Cl)c(Cl)c3)c2ccn1CCO [CTCB-401]", "SYSTEM NAME": "bloodstream form of T. brucei strain Lister 427", "EC50": "900 nM"}

====

SYSTEM NAME: TbPFK (Trypanosoma brucei brucei)
Construct: made in house; host or cells: Escherichia coli C41 (pET28a, codon optimised gene)
Sequence (O15648 whole entry): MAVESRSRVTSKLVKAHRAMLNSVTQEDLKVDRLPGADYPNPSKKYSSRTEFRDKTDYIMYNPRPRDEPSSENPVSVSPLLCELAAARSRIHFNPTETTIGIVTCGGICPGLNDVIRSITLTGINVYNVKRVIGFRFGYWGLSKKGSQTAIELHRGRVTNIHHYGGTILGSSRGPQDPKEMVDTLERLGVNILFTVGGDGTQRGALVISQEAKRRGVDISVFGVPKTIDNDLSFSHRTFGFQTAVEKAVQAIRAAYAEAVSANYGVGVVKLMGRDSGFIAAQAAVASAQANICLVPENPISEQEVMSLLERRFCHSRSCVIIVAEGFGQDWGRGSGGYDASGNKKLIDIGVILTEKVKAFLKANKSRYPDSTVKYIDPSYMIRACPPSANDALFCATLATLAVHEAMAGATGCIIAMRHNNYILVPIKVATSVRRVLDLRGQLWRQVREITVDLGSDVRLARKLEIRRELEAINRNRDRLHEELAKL
EXPERIMENT NOTES: Isothermal titration calorimetry (ITC)
Format: binding
REPORTED CONDITIONS: 25 °C
pKd: −log10 of the molar value.
METRIC NAME: pKd

{"SMILES REPR": "CN(C)CCn1ccc2c(ccn2Cc2ccc(Cl)c(Cl)c2)c1=O", "SYSTEM NAME": "TbPFK (Trypanosoma brucei brucei)", "QUANTITATIVE READOUT": 7.04}

====

EXPERIMENT NOTES: Brain and plasma concentrations in mice after oral dose
Format: in vivo
REPORTED CONDITIONS: female, CD-1, mouse, brain homogenate; single oral dose of 50 mg kg^−1, 2 h; read-out: mean concentration in brain homogenate

{"SMILES REPR": "CN(C)CCn1ccc2c(ccn2Cc2ccc(Cl)c(Cl)c2)c1=O", "concentration at 2 h": "1510 ng/g"}

====

SYSTEM NAME: T. brucei phosphofructokinase (TbPFK) (Trypanosoma brucei brucei, UniProt O15648)
Construct: made in house; host or cells: Escherichia coli C41 (pET28a, codon optimised gene)
Sequence (O15648 whole entry): as above
EXPERIMENT NOTES: ADP-Glo assay for measuring PFK inhibition
Assay type: biochemical
REPORTED CONDITIONS: source data; read-out: IC50 (µM), single dated measurement
IC50 values, listed per item
METRIC NAME: IC50 (µM)

{"COMPOUND": "CNC[C@@H](C)n1ccc2c(ccn2Cc2ccc(Cl)c(Cl)c2)c1=O [CTCB-481]", "QUANTITATIVE READOUT": 0.122}
{"COMPOUND": "Clc1ccc(Cn2cnc3cnccc32)cc1Cl [CTCB107]", "QUANTITATIVE READOUT": 0.6}

====

inhibition at 10 µM values, listed per item
SYSTEM NAME: CYP2C9 (Homo sapiens, UniProt P11712)
Construct: purchased BD Biosciences
Sequence (P11712 whole entry): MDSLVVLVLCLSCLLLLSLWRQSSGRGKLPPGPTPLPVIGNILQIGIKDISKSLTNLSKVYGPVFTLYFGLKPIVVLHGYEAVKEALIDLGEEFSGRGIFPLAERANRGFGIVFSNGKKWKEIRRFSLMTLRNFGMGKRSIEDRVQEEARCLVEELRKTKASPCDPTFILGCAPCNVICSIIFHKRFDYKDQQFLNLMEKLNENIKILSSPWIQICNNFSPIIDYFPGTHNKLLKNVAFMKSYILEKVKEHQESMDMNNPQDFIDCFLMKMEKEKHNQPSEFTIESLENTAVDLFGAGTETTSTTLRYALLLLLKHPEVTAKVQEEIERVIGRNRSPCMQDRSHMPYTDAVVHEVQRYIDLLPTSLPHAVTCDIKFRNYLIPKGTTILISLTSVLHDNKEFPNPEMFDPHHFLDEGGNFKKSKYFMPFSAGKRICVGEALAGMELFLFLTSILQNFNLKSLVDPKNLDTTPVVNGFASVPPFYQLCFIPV
EXPERIMENT NOTES: Inhibition of CYP450 2C9
Format: in vitro ADME
REPORTED CONDITIONS: CYP450 isoform inhibition kit (BD Biosciences), probe MFC

{"COMPOUND": "CN(C)CCn1ccc2c(ccn2Cc2ccc(Cl)c(Br)c2)c1=O [CTCB-470]", "SYSTEM NAME": "CYP2C9 (Homo sapiens, UniProt P11712)", "inhibition at 10 µM / %": 28.5}
{"COMPOUND": "CN(C)CCn1ccc2c(ccn2Cc2ccc(F)c(Br)c2)c1=O [CTCB-508]", "SYSTEM NAME": "CYP2C9 (Homo sapiens, UniProt P11712)", "inhibition at 10 µM / %": 6.1}
{"COMPOUND": "CN(C)CCn1ccc2c(ccn2Cc2ccc(Cl)c(Cl)c2)c1=O [CTCB-405]", "SYSTEM NAME": "CYP2C9 (Homo sapiens, UniProt P11712)", "inhibition at 10 µM / %": 11}
